# System: Hep3B2.1-7 human liver cancer cells
# assay-info: In vitro anti-proliferative effect, CCK-8 method, Hep3B
# Type: cell-based
# experimental-parameters: Homo sapiens; Hep3B cell strain, compound at 10 μM, CCK-8 method
Reported inhibition at 10 µM by item:

{"smiles-record": "CC(=O)Nc1ccc2ncnc(NCc3ccc(C(=O)Nc4cc(-c5ccco5)ccc4N)cc3)c2c1", "tested-system": "Hep3B2.1-7 human liver cancer cells", "inhibition at 10 µM, %": -14}
{"smiles-record": "COc1cc2ncnc(NCc3ccc(C(=O)Nc4cc(-c5cccs5)ccc4N)cc3)c2cc1OC", "tested-system": "Hep3B2.1-7 human liver cancer cells", "inhibition at 10 µM, %": -5}
{"smiles-record": "COc1cc2ncnc(Nc3ccc(C(=O)Nc4ccncc4N)cc3)c2cc1OC", "tested-system": "Hep3B2.1-7 human liver cancer cells", "inhibition at 10 µM, %": -10.2}
{"smiles-record": "COc1cc2ncnc(Nc3ccc(C(=O)Nc4cc(F)ccc4N)cc3)c2cc1OCCCN1CCOCC1", "tested-system": "Hep3B2.1-7 human liver cancer cells", "inhibition at 10 µM, %": 13.8}

====

# Tested on: Jurkat E6-1 human T-cell lymphoma
# assay-info: In vitro anti-proliferative effect, CCK-8 method, Jurkat E6-1
# Type: cell-based
pIC50: −log10 of the molar value.

{"compound": "Nc1ccccc1NC(=O)c1ccc(CNC(=O)OCc2cccnc2)cc1 [MS-275, reference compound]", "pIC50": 6.25}

====

# tested-system: HDAC1 (Homo sapiens (Human), UniProt Q13547)
# Sequence (Q13547 whole entry): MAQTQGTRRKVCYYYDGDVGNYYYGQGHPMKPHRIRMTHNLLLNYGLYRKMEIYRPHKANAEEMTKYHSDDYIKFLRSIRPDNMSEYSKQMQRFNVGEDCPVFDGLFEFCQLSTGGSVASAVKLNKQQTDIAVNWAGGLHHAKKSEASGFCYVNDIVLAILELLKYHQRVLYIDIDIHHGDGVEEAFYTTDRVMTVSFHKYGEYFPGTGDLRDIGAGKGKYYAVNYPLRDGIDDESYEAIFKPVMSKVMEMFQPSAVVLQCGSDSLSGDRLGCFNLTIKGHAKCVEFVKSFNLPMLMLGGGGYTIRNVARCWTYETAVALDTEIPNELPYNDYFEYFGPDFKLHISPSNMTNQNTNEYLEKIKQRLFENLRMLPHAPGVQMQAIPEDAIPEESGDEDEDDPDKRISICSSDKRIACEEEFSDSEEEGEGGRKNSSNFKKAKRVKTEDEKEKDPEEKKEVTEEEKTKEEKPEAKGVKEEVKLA
# assay-info: In vitro inhibition of subtype HDAC1 (HDAC1 Inhibitor Drug Screening Kit, Biovision)
# Assay type: biochemical
# experimental-parameters: 10 μM; read-out: % Inhibition towards HDAC1

{"smiles-record": "Nc1cnccc1NC(=O)c1ccc(CNc2ncnc3ccccc23)cc1", "inhibition at 10 µM, %": 88.4}
{"smiles-record": "COc1cccc2c(Nc3ccc(C(=O)Nc4ccccc4N)cc3)ncnc12", "inhibition at 10 µM, %": 58.3}
{"smiles-record": "Nc1ccccc1NC(=O)c1ccc(Nc2ncnc3ccc(F)cc23)cc1", "inhibition at 10 µM, %": 49.1}
{"smiles-record": "COc1cccc2ncnc(Nc3ccc(C(=O)Nc4ccncc4N)cc3)c12", "inhibition at 10 µM, %": 62.7}
{"smiles-record": "Nc1ccc(F)cc1NC(=O)c1ccc(CNc2ncnc3ccccc23)cc1", "inhibition at 10 µM, %": 63.2}

====

This section presents compounds with their documented inhibition at 10 µM values.
# Test system: Hut78 T lymphocytic leukemia cells
# assay-info: In vitro anti-proliferative effect, CCK-8 method, Hut78
# Assay type: cell-based
# experimental-parameters: Homo sapiens, HuT78; 10 μM; read-out: Hut-78 (inhibition %)
experimental-readout: inhibition at 10 µM (%)

{"compound": "CC(=O)Nc1ccc2ncnc(NCc3ccc(C(=O)Nc4cc(-c5ccco5)ccc4N)cc3)c2c1 [Compound V-48]", "value-reported": 75.4}
{"compound": "COc1cccc2ncnc(Nc3ccc(C(=O)Nc4ccccc4N)cc3)c12 [Compound V-7]", "value-reported": 10.7}
{"compound": "COCCOc1cc2ncnc(Nc3ccc(C(=O)Nc4ccncc4N)cc3)c2cc1OCCOC [Compound V-16]", "value-reported": 26.2}
{"compound": "COCCOc1cc2ncnc(Nc3ccc(C(=O)Nc4ccccc4N)cc3)c2cc1OCCOC [Compound V-15]", "value-reported": 70.7}
{"compound": "Nc1ccccc1NC(=O)c1ccc(CNc2ncnc3c(F)cccc23)cc1 [Compound V-43]", "value-reported": 75.7}
{"compound": "COc1cc2ncnc(Nc3ccc(C(=O)Nc4ccncc4N)cc3)c2cc1OC [Compound V-4]", "value-reported": 66.4}
{"compound": "CC(=O)Nc1ccc2ncnc(Nc3ccc(C(=O)Nc4ccccc4N)cc3)c2c1 [Compound V-21]", "value-reported": 65.2}
{"compound": "Nc1cnccc1NC(=O)c1ccc(Nc2ncnc3ccccc23)cc1 [Compound V-2]", "value-reported": 63.4}
